Tested on: K4 kissing-loop RNA reporter;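 note: bound reporter read as fluorescence of individual clusters on recovered sequencing chips by microscopy, with normalized cluster intensities fitted with a binding model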
protocol-description: apparent KD of K4 kissing-loop reporter; higher = weaker reporter binding
reported-conditions: Eterna round: R107; input ligand: none
Parameter: apparent KD of K4 kissing-loop reporter. Scope: all listed entries.
metric: apparent KD of K4 kissing-loop reporter

>  <seq-string>
GUGCGCGCGGCGGCCGCCACUCGCAUGAGAGUGAUGUUCUCACCGUGACCGCAAGGUCGCGGUGUGAGGACCGGGCCGGGCUGCG [#2 Same State - Tryptophan B Attempt #25 (HarryS)]

>  <metric>
apparent KD of K4 kissing-loop reporter

>  <result>
217 nM

$$$$
>  <seq-string>
CCUAUCUCAUACGAUACCAGUGAAUUUAUGUUUAUUAGCAGUGAUGUUGCGUUCCAAGUACACCCUUGGCAGCGUAUGGGAUAGG [Ex Theophylline B K4 24]

>  <metric>
apparent KD of K4 kissing-loop reporter

>  <result>
147 nM

$$$$
>  <seq-string>
AAGUGUGUGGCGGCCGCCACUAGAAUCCAGUGAUGUUGGAGAUAUCACGUAAGUGAUAUCCACCAUAGGACCGGGCCAUAUAGAA [Same State - Tryptophan B (Freestyle 13)]

>  <metric>
apparent KD of K4 kissing-loop reporter

>  <result>
559 nM

$$$$
>  <seq-string>
AAAAUAAAUAGCAGUCAUGGAGUGAUGUUCCGAGGACCGGUACGGCCGCCACUCGACCAUCAUAAGAUGGAAUGGCAAGACUGCA [#SwitchBubble 23 #K4Early]

>  <metric>
apparent KD of K4 kissing-loop reporter

>  <result>
358 nM

$$$$
>  <seq-string>
AUGUAUAUCUCAGGAUAUAUAUGUGUGUGGUGUAUACAUAGUGAUGUUGUGUAUAUCCACAUAUGUAUAGAAGGGAGAUGUGCAU [Skye_SS_FMNB]

>  <metric>
apparent KD of K4 kissing-loop reporter

>  <result>
73.9 nM

$$$$
>  <seq-string>
AGUGACGAGUGAUGUUCGUGAACACUGGAUACCAGCAGUCUUAUCUGCCCUUGGCAGCCAACGGGAACCGAAUGUUAAGACCUGU [theeternabot_exclusion_KL_Theo_A_4]

>  <metric>
apparent KD of K4 kissing-loop reporter

>  <result>
129 nM

$$$$
>  <seq-string>
UUAUAUUUUAUAUUUAGUAGAGCUCUAGCUCGAGGACCGGUACGGCCGCCACUCGAGUGAUGUUCGAGUGGGUGAGCUCUACAUU [AK3 EXC Tryptophan A]

>  <metric>
apparent KD of K4 kissing-loop reporter

>  <result>
103 nM

$$$$
>  <seq-string>
AAGGGCGGAACUUCCUCGCCGGAUAGAGAUACCAGCCCAGCAAAGGGCCCUUGGCAGCUCACUGACCUCAGUGAUGUUGAGGUUC [Riesrevere]

>  <metric>
apparent KD of K4 kissing-loop reporter

>  <result>
301 nM

$$$$
>  <seq-string>
AACUGCUAAGAGGUUAAGCACGUCAUUAUGAAGGAUAUAGAAUUCACUAGAAGGUCAUGUGCCCUGAGUGAUGUUCAGAUAGGCG [theeternabot_sameState_KL_FMN_A_25]

>  <metric>
apparent KD of K4 kissing-loop reporter

>  <result>
236 nM

$$$$
>  <seq-string>
CGAUGUUCCUGGGAUACCAGUCGGAGUCUCAGAGCUCGGAGUGAUGUUCUGGGAUGUUUCGGCCCUUGGCAGCUCUGGGACUCCC [#2 Exclusion - Theophylline B Attempt #23 (HarryS)]

>  <metric>
apparent KD of K4 kissing-loop reporter

>  <result>
818 nM

$$$$
>  <seq-string>
AUUAAUUUCAGAGGAUAUCGUAAUUUUAUUUUAUUUUUUCAUUUAUGCAGUGAUGUUGCAUUUAUUCGAGAAGGCUGAUUUAUAA [JR_SSFMNB_Sub021]

>  <metric>
apparent KD of K4 kissing-loop reporter

>  <result>
40.8 nM

$$$$
